Would you kindly list Plasma (1 μM), activity in % of control for each of these compounds?
Biological target: Dopamine beta hydroxylase (Homo sapiens)
Construct: 125 μl of plasma; tissue Instituto Português do Sangue Transplantação; host or cells: human plasma from healthy donors
Sequence (P09172 40-617 limits assumed): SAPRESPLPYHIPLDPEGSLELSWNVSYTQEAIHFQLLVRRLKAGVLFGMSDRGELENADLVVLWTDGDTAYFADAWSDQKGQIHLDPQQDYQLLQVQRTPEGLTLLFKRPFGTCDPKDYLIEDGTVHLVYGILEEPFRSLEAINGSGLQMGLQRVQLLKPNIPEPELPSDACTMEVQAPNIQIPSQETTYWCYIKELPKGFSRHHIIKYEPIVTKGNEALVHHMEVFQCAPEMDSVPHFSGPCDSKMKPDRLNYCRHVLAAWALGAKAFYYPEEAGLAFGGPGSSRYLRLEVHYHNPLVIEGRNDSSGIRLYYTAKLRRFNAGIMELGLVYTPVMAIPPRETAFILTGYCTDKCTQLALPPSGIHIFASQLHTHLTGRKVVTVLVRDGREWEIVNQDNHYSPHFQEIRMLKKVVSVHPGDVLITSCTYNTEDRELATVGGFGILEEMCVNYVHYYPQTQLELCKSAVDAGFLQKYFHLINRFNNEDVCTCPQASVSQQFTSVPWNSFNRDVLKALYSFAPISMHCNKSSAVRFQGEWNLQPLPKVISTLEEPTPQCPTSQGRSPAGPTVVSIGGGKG
Experiment: Dopamine beta hydroxylase activity in human plasma
Assay type: biochemical
Conditions: inhibitor 1 μM

| structure.string | value |
| --- | --- |
| NC(=O)C1CCN(C(=O)Cc2[nH]c(=S)n3c2C[C@H](c2c(F)c(F)cc(F)c2F)C3)CC1 | 14.7 % of control |
| CCOC(=O)Cc1[nH]c(=S)n2c1[C@@H]1C[C@]1(c1cc(F)cc(Cl)c1)C2 | 11.1 % of control |
| CC(C)NCCc1[nH]c(=S)n2c1[C@@H]1C[C@]1(c1cc(Cl)ccc1F)C2.Cl | 13.8 % of control |
| O=C(Cc1[nH]c(=S)n2c1C[C@@H](c1c(F)ccc(Br)c1F)C2)N[C@@H]1CCOC1 | 0.4 % of control |
| CNC(=O)Cc1[nH]c(=S)n2c1[C@@H]1C[C@]1(c1cc(F)cc(Cl)c1)C2 | 13.5 % of control |

Quick one: give me Plasma (1 μM), activity in % of control for each item below, same order please.
1. O=C(Cc1[nH]c(=S)n2c1[C@@H]1C[C@]1(c1cc(Br)ccc1F)C2)N1CCN(c2ccccn2)CC1
2. O=C(Cc1[nH]c(=S)n2c1C[C@H](c1cc(Cl)ccc1F)C2)N[C@@H]1CCOC1
3. O=C(Cc1[nH]c(=S)n2c1C[C@@H](c1c(F)ccc(Cl)c1F)C2)NC1CCCC1

Data returned:
1. 2.4 % of control
2. 56.3 % of control
3. 1.0 % of control

---

Molecular target: Dopamine beta hydroxylase (Homo sapiens, UniProt P09172)
Construct: 125 μl of plasma; tissue Instituto Português do Sangue Transplantação; host or cells: human plasma from healthy donors
Sequence (P09172 40-617 limits assumed): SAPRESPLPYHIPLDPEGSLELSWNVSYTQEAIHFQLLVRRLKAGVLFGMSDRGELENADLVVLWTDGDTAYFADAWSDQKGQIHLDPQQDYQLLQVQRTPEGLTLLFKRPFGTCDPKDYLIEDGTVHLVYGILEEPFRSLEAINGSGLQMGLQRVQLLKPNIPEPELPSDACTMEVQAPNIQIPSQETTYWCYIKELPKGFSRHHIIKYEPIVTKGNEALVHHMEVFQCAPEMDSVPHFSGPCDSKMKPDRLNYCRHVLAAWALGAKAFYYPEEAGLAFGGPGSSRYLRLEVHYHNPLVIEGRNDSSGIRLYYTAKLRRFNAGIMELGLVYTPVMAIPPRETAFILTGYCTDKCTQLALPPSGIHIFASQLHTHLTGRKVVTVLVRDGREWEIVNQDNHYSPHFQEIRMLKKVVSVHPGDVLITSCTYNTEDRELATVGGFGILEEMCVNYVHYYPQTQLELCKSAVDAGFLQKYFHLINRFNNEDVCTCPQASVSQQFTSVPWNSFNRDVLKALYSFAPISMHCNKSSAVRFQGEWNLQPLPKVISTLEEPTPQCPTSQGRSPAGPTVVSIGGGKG
Experiment: Dopamine beta hydroxylase activity in human plasma
Assay type: biochemical
Settings: inhibitor 0.01 μM
assay.readout: Plasma (0.01 μM), activity in % of control

Example entries and their recorded answers appear below.
| molecule | value |
| --- | --- |
| O=C(Cc1[nH]c(=S)n2c1C[C@@H](c1c(F)ccc(Cl)c1F)C2)N1CCC(F)(F)CC1 | 89.6 % of control |
| O=C(Cc1[nH]c(=S)n2c1C[C@H](c1c(F)c(F)cc(F)c1F)C2)NC1CCS(=O)(=O)CC1 | 50.1 % of control |
| CN(C(=O)Cc1c2n(c(=S)n1C)C[C@@]1(c3c(F)ccc(Cl)c3F)C[C@@H]21)C1CCOC1 (stereo partly shown) | 43.6 % of control |
| CS(=O)(=O)C1CCN(C(=O)Cc2[nH]c(=S)n3c2C[C@H](c2c(F)ccc(Br)c2F)C3)CC1 | 100.2 % of control |
| Cn1c(CC(=O)NCC(F)(F)F)c2n(c1=S)C[C@@]1(c3cc(Cl)ccc3F)C[C@@H]21 | 57.0 % of control |

Quick one: give me Plasma (0.01 μM), activity in % of control for each item below, same order please.
1. CN(C)C(=O)C1CCN(C(=O)Cc2c3n(c(=S)n2C)C[C@H](c2c(F)ccc(Br)c2F)C3)C1 (stereo partly shown)
2. Cn1c(CC(=O)NC2COC2)c2n(c1=S)C[C@H](c1c(F)ccc(Cl)c1F)C2
3. Cn1c(CC(=O)NCC#N)c2n(c1=S)C[C@@]1(c3cc(Cl)ccc3F)C[C@@H]21
4. O=C(Cc1[nH]c(=S)n2c1C[C@@H](c1c(F)ccc(Cl)c1F)C2)Nc1nncs1
5. O=C(Cc1[nH]c(=S)n2c1C[C@H](c1c(F)c(F)cc(F)c1F)C2)N[C@@H]1CCOC1
6. Cn1c(CC(=O)N2CCC(CF)C2)c2n(c1=S)C[C@@H](c1c(F)ccc(F)c1F)C2 (stereo partly shown)
7. O=S1(=O)CCC(NCCc2[nH]c(=S)n3c2C[C@H](c2c(F)ccc(Br)c2F)C3)CC1
8. Cn1c(CC(=O)O)c2n(c1=S)C[C@@]1(c3cc(Br)ccc3F)C[C@@H]21

Data returned:
56.6 % of control
47.5 % of control
51.9 % of control
51.9 % of control
31.8 % of control
90.6 % of control
88.2 % of control
79.0 % of control

Quick one: give me Plasma (0.01 μM), activity in % of control for each item below, same order please.
1. Cn1c(CC(=O)N[C@@H]2CCCOC2)c2n(c1=S)C[C@@]1(c3cc(Cl)ccc3F)C[C@@H]21
2. [2H]C([2H])([2H])n1c(CC(=O)N2CCOCC2)c2n(c1=S)C[C@H](c1c(F)ccc(Cl)c1F)C2
3. CN(C(=O)Cc1[nH]c(=S)n2c1C[C@@H](c1c(F)ccc(Br)c1F)C2)C1CCOC1 (stereo partly shown)
4. Cn1c(CCC(=O)N2CCCC2)c2n(c1=S)C[C@@H](c1c(F)cccc1F)C2
5. Cn1c(CC(=O)N2CCOCC2)c2n(c1=S)C[C@@]1(c3cc(Cl)ccc3F)C[C@@H]21
6. CN(C(=O)Cc1[nH]c(=S)n2c1C[C@H](c1c(F)ccc(Br)c1F)C2)C1CCCCC1
7. CN1C[C@@H](NC(=O)Cc2c3n(c(=S)n2C)C[C@H](c2c(F)ccc(Br)c2F)C3)CC1=O
8. F.Fc1ccc(Br)cc1[C@]12C[C@H]1c1c(CCN3CCOCC3)[nH]c(=S)n1C2

Data returned:
49.1 % of control
43.9 % of control
50.8 % of control
98.4 % of control
68.1 % of control
91.9 % of control
27.8 % of control
82.3 % of control

Quick one: give me Plasma (0.01 μM), activity in % of control for each item below, same order please.
1. F.Fc1ccc(Cl)cc1[C@]12C[C@H]1c1c(CCNCc3ccccc3)[nH]c(=S)n1C2
2. O=C(Cc1[nH]c(=S)n2c1C[C@@H](c1c(F)ccc(Cl)c1F)C2)Nc1ccccn1
3. CN(CCO)C(=O)Cc1c2n(c(=S)n1C)C[C@@H](c1c(F)ccc(F)c1F)C2
4. CN(C(=O)Cc1[nH]c(=S)n2c1C[C@H](c1c(F)ccc(F)c1F)C2)C1CCOC1 (stereo partly shown)
5. CS(=O)(=O)CCNC(=O)Cc1[nH]c(=S)n2c1C[C@H](c1c(F)ccc(Br)c1F)C2
6. Cn1c(CC(=O)N[C@H]2CCOC2)c2n(c1=S)C[C@@]1(c3cc(Cl)ccc3F)C[C@@H]21

Data returned:
1: 87.4 % of control; 2: 59.3 % of control; 3: 104.8 % of control; 4: 97.0 % of control; 5: 89.2 % of control; 6: 70.6 % of control

Quick one: give me Plasma (0.01 μM), activity in % of control for each item below, same order please.
1. CN(Cc1cnn(C)c1)C(=O)Cc1c2n(c(=S)n1C)C[C@H](c1c(F)ccc(Cl)c1F)C2
2. C[C@@H](NCCc1[nH]c(=S)n2c1C[C@H](c1c(F)ccc(Br)c1F)C2)C1CCCCC1
3. O=C(CCc1[nH]c(=S)n2c1C[C@H](c1c(F)c(F)cc(F)c1F)C2)N1CCC(F)(F)CC1
4. CN(CCO)Cc1[nH]c(=S)n2c1C[C@H](c1c(F)c(F)cc(F)c1F)C2.Cl

Data returned:
1. 25.3 % of control
2. 89.2 % of control
3. 22.4 % of control
4. 104.9 % of control
